Sourced from patent US9255122B2

Here the recorded CMC is given for each entry.
assayText: Critical micelle concentration (CMC) estimated with hydrophobic fluorescent dye diphenylhexatriene (DPH)
Assay type: physicochemical
studyConditions: estimated with DPH; Example 2, Table 2.1

{"molecule": "C[N+](C)([O-])CCCNC(=O)CC(c1ccccc1)c1ccccc1 [DPA-2, reference compound]", "CMC": "~78 mM"}
{"molecule": "CC(CCC(=O)N(C)CCC[N+](C)(C)[O-])C1CCC2C3C(O)CC4CC(O)CCC4(C)C3CC(O)C12C (stereo not shown) [CAO-1]", "CMC": "~7.2 mM"}
{"molecule": "C[N+](C)([O-])CCCNC(=O)CC1(C2CCCC2)CCCCCC1 [DPA-1]", "CMC": "~13 mM"}
{"molecule": "C[C@H](CCC(=O)NCCC[N+](C)(C)CCCS(=O)(=O)[O-])[C@H]1CC[C@H]2[C@@H]3[C@H](O)C[C@@H]4C[C@H](O)CC[C@]4(C)[C@H]3C[C@H](O)[C@]12C [CHAPS, reference compound]", "CMC": "~8.0 mM"}

----------
# maps each entry to its CMC
assayText: Critical micelle concentration (CMC) estimated with hydrophobic fluorescent dye diphenylhexatriene (DPH)
Format: physicochemical
studyConditions: Example 3, Table 3-2
reportedMetric: CMC (mM)

{"compound": "C[C@H](CCC(=O)NCCC[N+](C)(C)CCCS(=O)(=O)[O-])[C@H]1CC[C@H]2[C@@H]3[C@H](O)C[C@@H]4C[C@H](O)CC[C@]4(C)[C@H]3C[C@H](O)[C@]12C [CHAPS, reference compound]", "result": 8}
{"compound": "C[C@H](CCC(=O)NCCC[N+](C)(C)CC(O)CS(=O)(=O)[O-])[C@H]1CC[C@H]2[C@@H]3[C@H](O)C[C@@H]4C[C@H](O)CC[C@]4(C)[C@H]3C[C@H](O)[C@]12C (stereo partly shown) [CHAPSO, reference compound]", "result": 8}
{"compound": "CC(CCC(=O)NCCC[N+](C)(C)[O-])C1CCC2C3CCC4CC(O)CCC4(C)C3CC(O)C12C (stereo not shown) [DCAO]", "result": 1.0}
{"compound": "CC(CCC(=O)NCCC[N+](C)(C)[O-])C1CCC2C3C(O)CC4CC(O)CCC4(C)C3CC(O)C12C (stereo not shown) [CAO]", "result": 7.1}

----------
CMC values for the molecules below.
assayText: Critical micelle concentration (CMC) estimated with hydrophobic fluorescent dye diphenylhexatriene (DPH)
Type: physicochemical
studyConditions: estimated with DPH; Example 2, Table 2.1
reportedMetric: CMC

{"molecule": "CC(CCC(=O)NCCC[N+](C)(C)[O-])C1CCC2C3CCC4CC(O)CCC4(C)C3CC(O)C12C (centres unmarked)", "reportedMetric": "CMC", "result": "~1.3 mM"}
{"molecule": "CCCCCCCCCCCC[N+](C)(C)[O-] [LDAO, lauryldimethylamine oxide, reference compound]", "reportedMetric": "CMC", "result": "~1.0 mM"}
{"molecule": "C[N+](C)([O-])CCCNC(=O)CC(C1CCCCC1)C1CCCCC1 [DPA-3, reference compound]", "reportedMetric": "CMC", "result": "~4.9 mM"}
{"molecule": "CC(CCC(=O)NCCC[N+](C)(C)[O-])C1CCC2C3C(O)CC4CC(O)CCC4(C)C3CC(O)C12C (centres unmarked)", "reportedMetric": "CMC", "result": "~8.3 mM"}
{"molecule": "CCCCCCCCCCCCO[C@@H]1O[C@H](CO)[C@@H](O[C@H]2O[C@H](CO)[C@@H](O)[C@H](O)[C@H]2O)[C@H](O)[C@H]1O [DDM, n-dodecyl-β-D-maltoside, reference compound]", "reportedMetric": "CMC", "result": "~0.17 mM"}

----------
assayText: Critical micelle concentration (CMC) estimated with hydrophobic fluorescent dye diphenylhexatriene (DPH)
Format: physicochemical
studyConditions: estimated with DPH; Example 2, Table 2.1
# CMC (wt. %) listing for each entry below

{"compound": "C[N+](C)([O-])CCCNC(=O)CC1(C2CCCC2)CCCCCC1 [DPA-1]", "CMC (wt. %)": "~0.24 wt. %"}
{"compound": "CC(CCC(=O)NCCC[N+](C)(C)[O-])C1CCC2C3CCC4CC(O)CCC4(C)C3CC(O)C12C (centres unmarked) [DCAO]", "CMC (wt. %)": "~0.064 wt. %"}
{"compound": "CC(CCC(=O)NCCC[N+](C)(C)[O-])C1CCC2C3C(O)CC4CC(O)CCC4(C)C3CC(O)C12C (centres unmarked) [CAO]", "CMC (wt. %)": "~0.42 wt. %"}
{"compound": "C[N+](C)([O-])CCCNC(=O)CC(C1CCCCC1)C1CCCCC1 [DPA-3, reference compound]", "CMC (wt. %)": "~0.17 wt. %"}
{"compound": "CC(CCC(=O)N(C)CCC[N+](C)(C)[O-])C1CCC2C3C(O)CC4CC(O)CCC4(C)C3CC(O)C12C (centres unmarked) [CAO-1]", "CMC (wt. %)": "~0.36 wt. %"}
{"compound": "CCCCCCCCCCCCO[C@@H]1O[C@H](CO)[C@@H](O[C@H]2O[C@H](CO)[C@@H](O)[C@H](O)[C@H]2O)[C@H](O)[C@H]1O [DDM, n-dodecyl-β-D-maltoside, reference compound]", "CMC (wt. %)": "~0.0087 wt. %"}
{"compound": "C[N+](C)([O-])CCCNC(=O)CC(c1ccccc1)c1ccccc1 [DPA-2, reference compound]", "CMC (wt. %)": "~2.5 wt. %"}
{"compound": "CCCCCCCCCCCC[N+](C)(C)[O-] [LDAO, lauryldimethylamine oxide, reference compound]", "CMC (wt. %)": "~0.023 wt. %"}

----------
assayText: Critical micelle concentration (CMC) estimated with hydrophobic fluorescent dye diphenylhexatriene (DPH)
Format: physicochemical
studyConditions: Example 3, Table 3-2

{"compound": "CC(CCC(=O)NCCC[N+](C)(C)[O-])C1CCC2C3CCC4CC(O)CCC4(C)C3CC(O)C12C (stereo not shown)", "CMC (%)": 0.049}
{"compound": "C[C@H](CCC(=O)NCCC[N+](C)(C)CCCS(=O)(=O)[O-])[C@H]1CC[C@H]2[C@@H]3[C@H](O)C[C@@H]4C[C@H](O)CC[C@]4(C)[C@H]3C[C@H](O)[C@]12C [CHAPS, reference compound]", "CMC (%)": 0.49}
{"compound": "C[C@H](CCC(=O)NCCC[N+](C)(C)CC(O)CS(=O)(=O)[O-])[C@H]1CC[C@H]2[C@@H]3[C@H](O)C[C@@H]4C[C@H](O)CC[C@]4(C)[C@H]3C[C@H](O)[C@]12C (stereo partly shown) [CHAPSO, reference compound]", "CMC (%)": 0.5}
{"compound": "CC(CCC(=O)NCCC[N+](C)(C)[O-])C1CCC2C3C(O)CC4CC(O)CCC4(C)C3CC(O)C12C (stereo not shown)", "CMC (%)": 0.36}

----------
Tested on: LHI-RC complex
Construct: made in house; host or cells: Rhodobacter capsulatus U43[pUHTM86Bgl], intracytoplasmic membranes
Sequence (P11847 whole entry): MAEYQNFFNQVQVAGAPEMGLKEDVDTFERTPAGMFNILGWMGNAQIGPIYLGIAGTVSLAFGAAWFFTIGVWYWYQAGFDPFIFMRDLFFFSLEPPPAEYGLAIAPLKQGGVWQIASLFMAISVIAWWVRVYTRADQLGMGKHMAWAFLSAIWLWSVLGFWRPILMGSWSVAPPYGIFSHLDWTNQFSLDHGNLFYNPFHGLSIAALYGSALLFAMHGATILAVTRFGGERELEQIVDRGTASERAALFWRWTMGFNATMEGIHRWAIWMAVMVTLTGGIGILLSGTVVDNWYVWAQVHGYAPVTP
Sequence (P19057 whole entry, further chain): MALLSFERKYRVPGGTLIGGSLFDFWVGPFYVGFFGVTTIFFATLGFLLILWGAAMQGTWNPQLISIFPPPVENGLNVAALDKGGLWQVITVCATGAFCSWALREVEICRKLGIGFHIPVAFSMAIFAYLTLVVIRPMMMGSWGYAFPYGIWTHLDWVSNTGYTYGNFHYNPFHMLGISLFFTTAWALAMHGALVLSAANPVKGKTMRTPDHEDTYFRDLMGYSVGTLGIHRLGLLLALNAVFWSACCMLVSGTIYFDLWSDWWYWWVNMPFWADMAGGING
Sequence (P19056 whole entry, further chain): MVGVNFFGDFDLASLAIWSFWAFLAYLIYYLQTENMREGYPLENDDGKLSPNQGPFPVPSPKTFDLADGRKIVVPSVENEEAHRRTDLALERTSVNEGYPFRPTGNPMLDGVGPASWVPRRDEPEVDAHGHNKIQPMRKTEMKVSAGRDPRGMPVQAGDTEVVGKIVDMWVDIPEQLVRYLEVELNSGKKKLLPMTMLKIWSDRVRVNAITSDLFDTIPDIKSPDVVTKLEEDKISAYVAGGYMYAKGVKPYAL
Sequence (P02948 whole entry, further chain): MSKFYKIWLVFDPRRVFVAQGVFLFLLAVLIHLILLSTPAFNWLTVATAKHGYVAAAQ
Sequence (P02950 whole entry, further chain): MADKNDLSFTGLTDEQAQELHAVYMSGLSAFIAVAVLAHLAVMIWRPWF
assayText: Solubilization of LHI-RC complex from R. capsulatus intracytoplasmic membranes (pellet/supernatant absorbance spectra)
Parameters: species or system Rhodobacter capsulatus
studyConditions: 2×CMC for DPA-2, CAO, CAO-1; 10×CMC for other new agents; 50×CMC for DDM and LDAO; 32° C., 30 min
reportedMetric: SY (%) Solubilization yield of LHI-RC complex from the membrane

{"molecule": "CC(CCC(=O)NCCC[N+](C)(C)[O-])C1CCC2C3CCC4CC(O)CCC4(C)C3CC(O)C12C (stereo not shown) [DCAO]", "result": "~70%"}
{"molecule": "CCCCCCCCCCCC[N+](C)(C)[O-] [LDAO, lauryldimethylamine oxide, reference compound]", "result": "~100%"}
{"molecule": "C[N+](C)([O-])CCCNC(=O)CC(C1CCCCC1)C1CCCCC1 [DPA-3, reference compound]", "result": "~95%"}
{"molecule": "C[N+](C)([O-])CCCNC(=O)CC(c1ccccc1)c1ccccc1 [DPA-2, reference compound]", "result": "~15%"}
{"molecule": "C[C@H](CCC(=O)NCCC[N+](C)(C)CCCS(=O)(=O)[O-])[C@H]1CC[C@H]2[C@@H]3[C@H](O)C[C@@H]4C[C@H](O)CC[C@]4(C)[C@H]3C[C@H](O)[C@]12C [CHAPS, reference compound]", "result": "~50%"}
{"molecule": "CC(CCC(=O)N(C)CCC[N+](C)(C)[O-])C1CCC2C3C(O)CC4CC(O)CCC4(C)C3CC(O)C12C (stereo not shown) [CAO-1]", "result": "~20%"}
{"molecule": "CCCCCCCCCCCCO[C@@H]1O[C@H](CO)[C@@H](O[C@H]2O[C@H](CO)[C@@H](O)[C@H](O)[C@H]2O)[C@H](O)[C@H]1O [DDM, n-dodecyl-β-D-maltoside, reference compound]", "result": "~70%"}
{"molecule": "C[N+](C)([O-])CCCNC(=O)CC1(C2CCCC2)CCCCCC1 [DPA-1]", "result": "~100%"}
{"molecule": "CC(CCC(=O)NCCC[N+](C)(C)[O-])C1CCC2C3C(O)CC4CC(O)CCC4(C)C3CC(O)C12C (stereo not shown) [CAO]", "result": "~30%"}
{"molecule": "C[C@H](CCC(=O)NCCC[N+](C)(C)CC(O)CS(=O)(=O)[O-])[C@H]1CC[C@H]2[C@@H]3[C@H](O)C[C@@H]4C[C@H](O)CC[C@]4(C)[C@H]3C[C@H](O)[C@]12C (stereo partly shown) [CHAPSO, reference compound]", "result": "~50%"}
